Source of measurements: the RNAGym collection of RNA variant scans (doi:10.1002/anie.201605470)

B1: Osa-1-4 twister ribozyme (parent)
chain: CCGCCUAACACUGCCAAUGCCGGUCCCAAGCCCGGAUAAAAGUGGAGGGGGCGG

- Variants of: B1
- Protocol summary: self-cleavage, relative activity (ratio to wild type); higher = more cleavage; co-transcriptional
Measured attribute: self-cleavage
Format: numeric value only, no unit, no commentary.

Answered examples (2):
Chain sequence	self-cleavage
CCGCCUAACACUGCCAAUGCCGGUCCCAAGCCCGGAUAAAAACGGAGGGGGCGG [G42A U43C]	0.11
CCGCCUAACACUGGCAAUGCCGGUCCCAAGCCCGGAUAAAAGUGGAGGCGGCGG [C14G G49C]	0.03

Exam item: Param item = CCGCCUAACACUGCCAAUGCCGGUCCAAAGCCCGGAUAAAAGUCGAGGGGGCGG [C27A G44C] ; retrieve measured self-cleavage.
Marked response: 0.14
